Please respond with reported growth inhibition for every item in the list.
- Assay Text: NCI Yeast Anticancer Drug Screen. Data for the mec2-1 strain (AID 157)
- Conditions: S. cerevisiae mec2-1 strain, at 50.0 µM (retest, dose inferred, filed as 5.0), active compounds read high
Compounds without any hit were thinned out: in the full panel of roughly 79,000, 15% have a hit.
Hi! Could you send only the number? It should be in %, unit omitted.

// query Request the reported growth inhibition associated with CCC(=O)C(CCN1CCC(N2C(=O)C(CCC#N)c3ccccc32)CC1)(c1ccccc1)c1ccccc1 (stereo unspecified)
// result -6

// query Request the reported growth inhibition associated with Nc1cccc([As]=S)c1 (stereo unspecified)
// result 99

// query Request the reported growth inhibition associated with O=[N+]([O-])c1cc[n+]([O-])c2ccccc12
// result 99

// query Request the reported growth inhibition associated with CCC(CC)COC(=O)CI
// result 79

// query Request the reported growth inhibition associated with ClCCN(Cc1ccccc1)CC1COc2ccccc2O1 (stereo unspecified)
// result 79

// query Request the reported growth inhibition associated with CC(=O)O[C@H]1CCC2[C@@H]3CCC4Nc5oncc5C[C@]4(C)C3CC[C@@]21C (stereo partly specified)
// result 75

// query Request the reported growth inhibition associated with CC(Cl)CN1COc2c3c(c4ccccc4c2C1)CN(CC(C)Cl)CO3 (stereo unspecified)
// result 99

// query Request the reported growth inhibition associated with CC(=O)OCC12CCC(C)=CC1OC1C(O)C(OC(C)=O)C2(C)C12CO2 (stereo unspecified)
// result 100

// query Request the reported growth inhibition associated with CC(C)c1ccc(C(C)C)c(C(=O)CN2CCOCC2)c1
// result 34

// query Request the reported growth inhibition associated with O=C1[O][Hg][c]2c1cccc2[N+](=O)[O-]
// result 100

// query Request the reported growth inhibition associated with O=C(Cc1c2ccccc2cc2c1ccc1ccccc12)N(CCCl)CCCl
// result 97

====

- Assay Text: NCI Yeast Anticancer Drug Screen. Data for the sgs1 mgt1 strain (AID 161);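 also: 0% = growth of cultures given vehicle only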
- Conditions: S. cerevisiae sgs1 mgt1 strain, at 50.0 µM, active compounds read high
The panel holds about 79,000 compounds, 15% with a hit somewhere; the sample as a whole holds those more often.
Please respond with reported growth inhibition for every item in the list.
Hi! Could you send only the number? It should be in %, unit omitted.

// query Request the reported growth inhibition associated with CCOC(=O)C1=C(C)N2CCCOC2(C)C(C(=O)OC)C1c1cccc([N+](=O)[O-])c1 (stereo not given)
// result -6.5

// query Request the reported growth inhibition associated with CC/C(=C/c1ccc(OC)cc1OC)[N+](=O)[O-]
// result 99

// query Request the reported growth inhibition associated with C=C1CCC2CC1C2(C)C (stereo not given) (tested in a mixture with another compound)
// result -5.7

// query Request the reported growth inhibition associated with COc1ccc(CCN(C)C(C)C2C3CC4CC(C3)CC2C4)cc1OC (stereo not given)
// result 19.2

// query Request the reported growth inhibition associated with C=C(C)[C@H]1CN[C@H](C(=O)O)[C@H]1CC(=O)O
// result -6.15

====

- Assay Text: NCI Yeast Anticancer Drug Screen. Data for the sgs1 mgt1 strain (AID 161);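 also: 0% = growth of cultures given vehicle only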
- Conditions: S. cerevisiae sgs1 mgt1 strain, at 50.0 µM, active compounds read high
Compounds without any hit were thinned out: in the full panel of roughly 79,000, 15% have a hit.
Assay Readout: growth inhibition (%)
Hi! Could you send only the number? It should be in %, unit omitted.

// query Request the reported growth inhibition associated with CC1=C/C(=N\[Se]c2ccccc2)C(=O)C(C)=C1
// result 24

// query Request the reported growth inhibition associated with C#CCN1C(=O)CN2C(Cl)(Cl)C2(c2ccccc2)c2cc(Cl)ccc21 (centres undefined)
// result -13.4

// query Request the reported growth inhibition associated with CN(C)c1ccc(N=Nc2cccc(C(=O)[O-])c2)cc1.CN(C)c1ccc(N=Nc2cccc(C(=O)[O-])c2)cc1.NC1CCCCC1N.O=[N+]([O-])O.[Pt+4]
// result 93.2

// query Request the reported growth inhibition associated with COc1cc(C(=O)OC(C)CC2(c3ccccc3)C(=O)NC(=O)NC2=O)cc(OC)c1OC (centres undefined)
// result 24.1

// query Request the reported growth inhibition associated with CCOC(=O)CC(=O)C(F)(F)F.CCOC(=O)CC(=O)C(F)(F)F.[Ni]
// result -12.2

// query Request the reported growth inhibition associated with O=C(CC(=O)C(=O)Nc1ccccc1)CC(c1ccccc1)c1c(O)c2ccccc2oc1=O (centres undefined)
// result 26.4

// query Request the reported growth inhibition associated with COC1=CCC2=C(CC[C@H]3[C@H]2CCP3C)C1 (some centres undefined)
// result -7.85

// query Request the reported growth inhibition associated with Cc1nc([N+](=O)[O-])c([N+](=O)[O-])n1CC(O)CCl (centres undefined)
// result 4.2

// query Request the reported growth inhibition associated with O=P1(N(CCCl)CCCl)Oc2c(Cl)cc(Cl)c(Cl)c2Cc2c(Cl)c(Cl)cc(Cl)c2O1
// result 2.85

====

- Assay Text: NCI Yeast Anticancer Drug Screen. Data for the bub3 strain (AID 167)
- Conditions: S. cerevisiae bub3 mutant strain, at 5.0 µM (retest, dose inferred, filed as 0.5), active compounds read high
This is part of a sample that, as a whole, favours compounds with a hit. Of some 79,000 tested, about 15% had one in any assay.
I would appreciate it if you labelled entries true (1) when growth inhibition is 10% or higher, otherwise false (0).

// query Decide: growth inhibition of CCC(CC)COC(=O)CI >= 10%?
// result true (1)

// query Decide: growth inhibition of COc1cc(C(=O)[O][Hg][CH2]C2CC(O)CC([CH2][Hg][O]C(=O)c3cc(OC)c(OC)c(OC)c3)O2)cc(OC)c1OC (configuration not stated) >= 10%?
// result true (1)

// query Decide: growth inhibition of [Se]C1=NCCN1 >= 10%?
// result false (0)

// query Decide: growth inhibition of O=C(OCCl)c1ccccc1 >= 10%?
// result false (0)

// query Decide: growth inhibition of O=C(O)CN1CCN(CC(=O)O)CC(=O)[O][Hg][O]C(=O)C1 >= 10%?
// result true (1)

// query Decide: growth inhibition of COCC(C#N)NC1CC(OC2CC(O)(C(=O)CO)Cc3c(O)c4c(c(O)c32)C(=O)c2c(OC)cccc2C4=O)OC(C)C1O (configuration not stated) >= 10%?
// result true (1)

// query Decide: growth inhibition of [C-]#[O+].[C-]#[O+].[C-]#[O+].[C-]#[O+].[C-]#[O+].[Mo+2].[Mo+4].[c-]1[c-][c-][cH-][c-]1.[c-]1[c-][c-][cH-][c-]1.c1ccc([PH+](CC[PH+](c2ccccc2)c2ccccc2)c2ccccc2)cc1 >= 10%?
// result true (1)

// query Decide: growth inhibition of COc1cccc(C2N(Cc3ccc(N(CCCl)CCCl)cc3C)CCCN2Cc2ccc(N(CCCl)CCCl)cc2C)c1O >= 10%?
// result false (0)

// query Decide: growth inhibition of CCOC(=O)NP(=O)(NNc1ccccc1)NNc1ccccc1 >= 10%?
// result true (1)

// query Decide: growth inhibition of C1OCC2[CH2][Hg][S][Hg][CH2]C1O2 >= 10%?
// result true (1)

// query Decide: growth inhibition of O=[As]c1ccc(O)c(O)c1 (configuration not stated) >= 10%?
// result true (1)

// query Decide: growth inhibition of CCCNC1=C(C)C(=O)C2=C(C1=O)[C@H](COC(N)=O)[C@]1(OC)[C@@H]3N[C@@H]3CN21 >= 10%?
// result false (0)

// query Decide: growth inhibition of IC(I)=C(I)I >= 10%?
// result true (1)

// query Decide: growth inhibition of COc1ccc([As+](c2ccccc2)(c2ccccc2)c2ccccc2)cc1 >= 10%?
// result true (1)

// query Decide: growth inhibition of C/C=C1/C(=O)O[C@]23C=C[C@@H]4C(C(=O)OC)=CO[C@H](O[C@@H]12)[C@@H]43 >= 10%?
// result true (1)

// query Decide: growth inhibition of C[C@H]1CC[C@@]2(NC1)O[C@H]1C[C@H]3[C@@H]4CC[C@H]5C[C@@H](O)CC[C@]5(C)[C@H]4CC[C@]3(C)[C@H]1[C@@H]2C >= 10%?
// result true (1)

// query Decide: growth inhibition of Cc1cc2c(cc1O)C(C)(C)CCC2(C)C >= 10%?
// result false (0)

// query Decide: growth inhibition of CCc1cc(C)cc2[n+]1CC=C2 >= 10%?
// result false (0)

// query Decide: growth inhibition of COS(=O)(=O)c1ccccc1 >= 10%?
// result false (0)

// query Decide: growth inhibition of CCCCOOC(=O)c1ccccc1C(=O)OOCCCC >= 10%?
// result true (1)

// query Decide: growth inhibition of C[C@]12CC[C@H](OC3OC(CO)C(O)C(O)C3O)C[C@H]1CC[C@@H]1[C@@H]2CC[C@]2(C)[C@@H](C3=CCOC3=O)CC[C@]12O (some centres not stated) >= 10%?
// result false (0)

// query Decide: growth inhibition of O=P(Oc1ccccc1)(Oc1ccccc1)Oc1ccccc1Cl >= 10%?
// result false (0)

// query Decide: growth inhibition of c1ccc([As+](c2ccccc2)(c2ccccc2)c2cccc3ccccc23)cc1 >= 10%?
// result true (1)

// query Decide: growth inhibition of O=C1C(C(Nc2ccccc2)c2ccccc2)=C([O-])c2ccccc21.O=C1C(C(Nc2ccccc2)c2ccccc2)=C([O-])c2ccccc21.[Ni+2] (configuration not stated) >= 10%?
// result true (1)

// query Decide: growth inhibition of O=C(O)C(F)(F)C(F)(F)C(=O)O >= 10%?
// result false (0)

// query Decide: growth inhibition of [Hg][c]1ccccc1 >= 10%?
// result true (1)

// query Decide: growth inhibition of COc1cc(/C=C(/C)[N+](=O)[O-])ccc1O >= 10%?
// result true (1)

// query Decide: growth inhibition of CC(=O)[O-].O=C([CH-]C(=O)c1ccccc1)c1ccccc1.O=C([CH-]C(=O)c1ccccc1)c1ccccc1.[Dy+3] >= 10%?
// result true (1)

// query Decide: growth inhibition of C[N+](C)(C)CC1CCCC1=O (configuration not stated) >= 10%?
// result true (1)

// query Decide: growth inhibition of COC1CC2C=C(C)/C=C/C=C/C(=O)NC(c3ccccc3)C/C=C/CCC(O)CC(=O)C2=C1O (configuration not stated) >= 10%?
// result true (1)

// query Decide: growth inhibition of O=C1C=CC(=O)C(Br)C1Br (configuration not stated) >= 10%?
// result false (0)

// query Decide: growth inhibition of OC1CC([CH2][Hg][I])OC([CH2][Hg][I])C1 (configuration not stated) >= 10%?
// result true (1)

// query Decide: growth inhibition of CC(=O)Nc1c2sscc-2n(C)c1=O >= 10%?
// result true (1)

// query Decide: growth inhibition of COc1cc(N(CC(C)Br)CC(C)Br)ccc1N=Nc1ccccc1C(=O)O (configuration not stated) >= 10%?
// result true (1)

// query Decide: growth inhibition of O=[n+]1c2ccccc2n([O-])c2ccccc21.[Cl][Cu][Cl] >= 10%?
// result false (0)

// query Decide: growth inhibition of COC1(O[C@H]2CC[C@H]3[C@@H]4CCC5=CC(=O)CC[C@]5(C)[C@H]4CC[C@]23C)CCCCC1 >= 10%?
// result false (0)

// query Decide: growth inhibition of O=C(O)C(CSC(c1ccccc1)c1ccccc1)NC(=O)C(c1ccccc1)c1ccccc1 (configuration not stated) >= 10%?
// result false (0)

// query Decide: growth inhibition of CCC[CH2][Sn]1([CH2]CCC)[O]C2C(O)OC(CO)C(O)C2[O]1 (configuration not stated) >= 10%?
// result true (1)

// query Decide: growth inhibition of C[CH2][Pb]([CH2]C)([CH2]C)[O]C(C)=O >= 10%?
// result true (1)

// query Decide: growth inhibition of Oc1cc(Cl)c(Cl)cc1Cl.[Cu+2] >= 10%?
// result true (1)

// query Decide: growth inhibition of COC(=O)[CH2][Sn]([CH2]C(=O)OC)([CH]1CCCCC1)[CH]1CCCCC1 >= 10%?
// result false (0)

// query Decide: growth inhibition of CN(C)c1ccc(/C=C/c2cc3scc(-c4ccccc4)[n+]3c3ccccc23)cc1 >= 10%?
// result true (1)
